Test system: JAK1-dependent STAT6 phosphorylation downstream of IL-13 stimulation in TF-1 human erythroleukemia cells
Test: JAK1 pathway assay in TF-1 cells (IL-13-pSTAT6, MSD)
Type: cell-based
Conditions: Homo sapiens, TF-1, TF-1 cells, read-out: IL13-pSTAT6 EC50_TF-1
Quick list: EC50 per entry.
Only the number, expressed in nM, is required.

Below, 2 molecules whose answers are already recorded.
>  <molecule>
CN1CCCC(n2cc(NC(=O)c3c(N)nn4cccnc34)c(-c3cc(Cl)ccc3OC(F)F)n2)CC1 (centres unmarked) [Example 172]

>  <EC50 / nM>
15.9

$$$$
>  <molecule>
Nc1nn2cccnc2c1C(=O)Nc1cn(CC(=O)N2C[C@H]3CN(CC4CCC(F)(F)CC4)C[C@H]3C2)nc1-c1cc(Cl)ccc1OC(F)F [Example 58]

>  <EC50 / nM>
25.6

$$$$

What value of EC50 has been reported for the following molecule? Nc1nn2cccnc2c1C(=O)Nc1cn(C2CCCNCC2)nc1-c1cc(Cl)ccc1OC(F)F (centres unmarked) [Example 171]
21.9

Follow-up entry: O=C(CNCCn1cc(NC(=O)c2cnn3cccnc23)c(-c2cc(Cl)ccc2OC(F)F)n1)OC1CCCC1 [Example 307]
6.1

Follow-up entry: CN(CCC#N)C1CCN(C(=O)Cn2cc(NC(=O)c3cnn4cccnc34)c(-c3cc(Cl)ccc3OC(F)F)n2)CC1 [Example 63]
5.7

Follow-up entry: CCN1CC2CN(C(=O)Cn3cc(NC(=O)c4c(N)nn5cccnc45)c(-c4cc(Cl)ccc4OC(F)F)n3)CC2C1 (centres unmarked) [Example 11]
11.8

Follow-up entry: CN(C)CC1(c2ccccc2)CCN(C(=O)Cn2cc(NC(=O)c3cnn4cccnc34)c(-c3cc(Cl)ccc3OC(F)F)n2)CC1 [Example 80]
4.9

Follow-up entry: O=C(Nc1sc(-c2ccncc2)nc1-c1cc(Cl)ccc1OC(F)F)c1cnn2cccnc12 [Example 254]
117

Follow-up entry: O=C(Nc1sc(N2CCC(N3CC(F)C3)CC2)nc1-c1cc(Cl)ccc1OC(F)F)c1cnn2cccnc12 [Example 194]
17.4

---

Tested on: JAK1-dependent STAT6 phosphorylation downstream of IL-13 stimulation in TF-1 human erythroleukemia cells
Test: JAK1 pathway assay in TF-1 cells (IL-13-pSTAT6, MSD)
Type: cell-based
Conditions: Homo sapiens, TF-1, TF-1 cells, read-out: IL13-pSTAT6 EC50_TF-1
reported_endpoint: pEC50
Would you please state pEC50, meaning minus log10 of the concentration in mol/L, as a bare number?

Below, 8 molecules whose answers are already recorded.
>  <molecule>
CN(C)C[C@@H]1CCCN(C(=O)Cn2cc(NC(=O)c3cnn4cccnc34)c(-c3cc(Cl)ccc3OC(F)F)n2)C1 [Example 72]

>  <pEC50>
8.14

$$$$
>  <molecule>
O=C(Nc1cn(CC(=O)N2C[C@H]3CN(CCCN4CCOCC4)C[C@H]3C2)nc1-c1cc(Cl)ccc1OC(F)F)c1cnn2cccnc12 [Example 19]

>  <pEC50>
6.42

$$$$
>  <molecule>
CC1(CN2C[C@@H]3CN(C(=O)Cn4cc(NC(=O)c5cnn6cccnc56)c(-c5cc(Cl)ccc5OC(F)F)n4)C[C@@H]3C2)COC1 [Example 39]

>  <pEC50>
8.18

$$$$
>  <molecule>
CN1CCN(CCCN2CCC(n3cc(NC(=O)c4cnn5cccnc45)c(-c4cc(Cl)ccc4OC(F)F)n3)CC2)C1=O [Example 154]

>  <pEC50>
8.57

$$$$
>  <molecule>
O=C(Nc1cn(CC(=O)N2CC=CCC2)nc1-c1cc(Cl)ccc1OC(F)F)c1cnn2cccnc12 [Example 284]

>  <pEC50>
8.80

$$$$
>  <molecule>
CN(Cc1cccc(C(F)(F)F)c1)C1CCN(C(=O)Cn2cc(NC(=O)c3cnn4cccnc34)c(-c3cc(Cl)ccc3OC(F)F)n2)CC1 [Example 128]

>  <pEC50>
7.37

$$$$
>  <molecule>
CNC(=O)CN1CCC(n2cc(NC(=O)c3cnn4cccnc34)c(-c3cc(Cl)ccc3OC(F)F)n2)CC1 [Example 157]

>  <pEC50>
8.04

$$$$
>  <molecule>
CC(=O)NCCCN1CCC(n2cc(NC(=O)c3c(N)nn4cccnc34)c(-c3cc(Cl)ccc3OC(F)F)n2)CC1 [Example 150]

>  <pEC50>
7.70

$$$$

What value of pEC50 has been reported for the following molecule? CCOC(=O)CCCN1CCC(n2cc(NC(=O)c3c(N)nn4cccnc34)c(-c3cc(Cl)ccc3OC(F)F)n2)CC1 [Example 175]
7.87

Follow-up entry: CN[C@@H]1CCC[C@H](n2cc(NC(=O)c3c(N)nn4cccnc34)c(-c3cc(Cl)ccc3OC(F)F)n2)C1 [Example 296]
8.25

Follow-up entry: Nc1nn2cccnc2c1C(=O)Nc1cn(C2CCN(Cc3ccccc3)CC2)nc1-c1cc(Cl)ccc1OC(F)F [Example 178]
7.08

Follow-up entry: CN1CC2(CCN(C(=O)Cn3cc(NC(=O)c4cnn5cccnc45)c(-c4cc(Cl)ccc4OC(F)F)n3)C2)C1 [Example 221]
6.88

Follow-up entry: CN1CCC2(CCN(C(=O)Cn3cc(NC(=O)c4cnn5cccnc45)c(-c4cc(Cl)ccc4OC(F)F)n3)CC2)C1 [Example 224]
7.71

Follow-up entry: O=C(Nc1cn(CC(=O)N2CCC(NCCc3ccc(O)cc3)CC2)nc1-c1cc(Cl)ccc1OC(F)F)c1cnn2cccnc12 [Example 91]
6.83
